- measured.on: GST-KIX (aa 588-683, from mouse CBP) (mouse, UniProt P45481 588-683)
- Sequence (P45481 588-683): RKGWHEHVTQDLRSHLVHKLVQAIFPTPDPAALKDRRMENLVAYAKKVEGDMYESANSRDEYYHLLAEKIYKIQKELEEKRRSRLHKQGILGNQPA
- procedure.details: native gel or EMSA
// Kd lookup, one value per entry

# binder, unit.name, Kd
rows = [
    ("Gal4-HBZ-Mut-AD2 (domain or fragment) MAASGLFRCLPVSCPEDLLVEELVDGLLSLEEELKDKEEEEAVLDGAASLEEESRGRLRRGPPGEKAPPRGETHRDR", "nM", 180),
    ("Gal4-HBZ-Mut-AD1 (domain or fragment) MAASGLFRCLPVSCPEDLLVEELVDGAASLEEELKDKEEEEAVLDGLLSLEEESRGRLRRGPPGEKAPPRGETHRDR", "nM", 800),
]

All values here come from paper PMC3139367.
